# Test system: SK-MEL-5
# test-summary: NCI tumour cell line growth inhibition, 48 h
Active and inactive are the calls of the source. Rule as the data show it: active = GI50 up to about 1.1 µM and inactive = higher.
recorded-endpoint: GI50

Which GI50 value belongs to "OC1CSCCCSCCSCCCSC1" ? > 100 µM (inactive)

Field request: GI50 | item: "Cc1ccnc2nc3[nH]c4ccccc4c3cc12" > 100 µM (inactive)

Find the recorded GI50 belonging to "CC(C)=C[C@@H]1C[C@H](n2cc(C)c(=O)[nH]c2=O)ON1CCO" and report it. > 100 µM (inactive)

GI50 lookup needed for "Cn1c2ccccc2n2c3ccccc3c3nnc(N)c-3c12" , thanks. 28.9 µM (inactive)

So what does the record say about GI50 for "Cc1nc2sccn2c1C(=O)NNC(N)=S" ? > 100 µM (inactive)

Please report the recorded GI50 for "COc1cc(/C=N/NC(=O)c2c(Cl)c(Cl)c(Cl)c(Cl)c2-c2nc3ccccc3[nH]2)ccc1O" . 14.9 µM (inactive)

Any idea what GI50 was measured for "COc1ccc(/C=C2/C(=O)N(C(=O)c3ccc(Cl)cc3)N=C2C)cc1OC" ? > 100 µM (inactive)

Dear colleague, I am looking for the recorded GI50 of the following compound: "COc1cc2cnc3c4cc(OC)c(OC(C)C)cc4ccc3c2cc1OC" > 100 µM (inactive)

GI50 for "CN1CCC(OC(=O)Oc2ccccc2)(c2ccccc2)CC1" ? 20 µM (inactive)

Fill in the blank: the reported GI50 of CC(C)(C)OC(=O)N1N=CCC1c1ccccc1 (stereo unspecified) is ____. > 100 µM (inactive)

Recorded GI50 of "CC(C)C1(O)C(c2ccccc2)=C(c2ccccc2)C(c2ccccc2)=C1c1ccccc1" , please. 10.6 µM (inactive)
